experiment: Solubility and sink factor in dissolution media at pH 2 and 6.8
settings: pH 6.8, aqueous with cosolvent or surfactant or cyclodextrin, thermodynamic from solid, Solubility, pH 6.8 (50 mM NaH2PO4) w/0.5% Tween 80
assay_endpoint: solubility
Please answer using the number first and the unit second.

Incoming: Provide measured solubility value, entry: `CS(=O)(=O)c1ccc(Oc2cc(F)cc(C#N)c2)c2c1[C@H](O)[C@H](F)[C@@H]2F`
Outgoing: 20 µg/mL

* * *

experiment: Solubility and sink factor in dissolution media at pH 2 and 6.8
settings: pH 6.8, aqueous with cosolvent or surfactant or cyclodextrin, thermodynamic from solid, Solubility, pH 6.8 (50 mM NaH2PO4) w/1% Tween 80
assay_endpoint: solubility (µg/mL)
Give bare numbers, in µg/mL.

Incoming: Provide measured solubility value, entry: `CS(=O)(=O)c1ccc(Oc2cc(F)cc(C#N)c2)c2c1[C@H](O)[C@H](F)[C@@H]2F`
Outgoing: 20

* * *

experiment: Solubility and sink factor in dissolution media at pH 2 and 6.8
settings: pH 2, aqueous with cosolvent or surfactant or cyclodextrin, thermodynamic from solid, Solubility, pH 2.0 (0.01N HCl) w/1% Tween 80
assay_endpoint: solubility (µg/mL)
One number for each entry, in µg/mL.

Incoming: Provide measured solubility value, entry: CS(=O)(=O)c1ccc(Oc2cc(F)cc(C#N)c2)c2c1[C@H](O)[C@H](F)[C@@H]2F [compound of Formula (I)]
Outgoing: 20

* * *

experiment: Solubility and sink factor in dissolution media at pH 2 and 6.8
settings: pH 2, simulated gastric fluid, thermodynamic from solid, Solubility, pH 2.0 (0.01N HCl)
assay_endpoint: solubility (µg/mL)
Numbers only, in µg/mL.

Incoming: Provide measured solubility value, entry: `CS(=O)(=O)c1ccc(Oc2cc(F)cc(C#N)c2)c2c1[C@H](O)[C@H](F)[C@@H]2F`
Outgoing: 10

* * *

System: VEGF
experiment: VEGF ELISA Assay in 786-O cells
Assay type: cell-based
settings: Homo sapiens, 786-0; VEGF concentration in 786-O cell culture medium
assay_endpoint: EC50

Incoming: Please respond with reported EC50 (system VEGF) for `CS(=O)(=O)c1ccc(Oc2cc(F)cc(C#N)c2)c2c1[C@H](O)[C@H](F)[C@@H]2F` .
Outgoing: < 50 nM

* * *

experiment: Solubility and sink factor in dissolution media at pH 2 and 6.8
settings: pH 6.8, aqueous with cosolvent or surfactant or cyclodextrin, thermodynamic from solid, Solubility, pH 6.8 (50 mM NaH2PO4) w/1% CTAB
assay_endpoint: solubility (µg/mL)
Numbers only, in µg/mL.

Incoming: Provide measured solubility value, entry: `CS(=O)(=O)c1ccc(Oc2cc(F)cc(C#N)c2)c2c1[C@H](O)[C@H](F)[C@@H]2F`
Outgoing: 110

* * *

experiment: Solubility and sink factor in dissolution media at pH 2 and 6.8
settings: pH 6.8, aqueous with cosolvent or surfactant or cyclodextrin, thermodynamic from solid, Solubility, pH 6.8 (50 mM NaH2PO4) w/0.5% SLS
assay_endpoint: solubility (µg/mL)
Numbers only, in µg/mL.

Incoming: Provide measured solubility value, entry: `CS(=O)(=O)c1ccc(Oc2cc(F)cc(C#N)c2)c2c1[C@H](O)[C@H](F)[C@@H]2F`
Outgoing: 40

* * *

experiment: Solubility and sink factor in dissolution media at pH 2 and 6.8
settings: pH 2, aqueous with cosolvent or surfactant or cyclodextrin, thermodynamic from solid, Solubility, pH 2.0 (0.01N HCl) w/0.5% SLS
assay_endpoint: solubility (µg/mL)
Give bare numbers, in µg/mL.

Incoming: Provide measured solubility value, entry: `CS(=O)(=O)c1ccc(Oc2cc(F)cc(C#N)c2)c2c1[C@H](O)[C@H](F)[C@@H]2F`
Outgoing: 40
